FYI, the data here is from patent US20230313180A1.

molecular target: SARS-CoV-2-RBD tagged with a C-terminal Fc tag (ACRO Biosystems) (SARS-CoV-2), P0DTC2
Experimental endpoint: kon (M⁻¹ s⁻¹)

(Nb113)2, homodimer of Nb1 (VHH72) with Tet3.0 at framework position Gln13, joined by the 2-headed sTCO (PEG)12 linker (VHH, modifications not checked) VHH: QVQLQESGGGLVQAGGSLRLSCAASGRTFSEYAMGWFRQAPGKEREFVATISWSGGSTYYTDSVKGRFTISRDNAKNTVYLQMNSLKPDDTAVYYCAAAGLGTVVSEWDYDYYLDYWGQGTQVTVSS :: 33800
(Nb1N)2, homodimer of Nb1 (VHH72) with Tet3.0 at the N-terminal position, joined by the 2-headed sTCO (PEG)12 linker (VHH, modifications not checked) VHH: SGTGSQVQLQESGGGLVQAGGSLRLSCAASGRTFSEYAMGWFRQAPGKEREFVATISWSGGSTYYTDSVKGRFTISRDNAKNTVYLQMNSLKPDDTAVYYCAAAGLGTVVSEWDYDYYLDYWGQGTQVTVSS :: 85800
(Nb1C)2, homodimer of Nb1 (VHH72) with Tet3.0 at the C-terminus, joined by the 2-headed sTCO (PEG)12 linker (VHH, modifications not checked) VHH: QVQLQESGGGLVQAGGSLRLSCAASGRTFSEYAMGWFRQAPGKEREFVATISWSGGSTYYTDSVKGRFTISRDNAKNTVYLQMNSLKPDDTAVYYCAAAGLGTVVSEWDYDYYLDYWGQGTQVTVSS :: 48100
(Nb142)2, homodimer of Nb1 (VHH72) with Tet3.0 at framework position Gly42, joined by the 2-headed sTCO (PEG)12 linker (VHH, modifications not checked) VHH: QVQLQESGGGLVQAGGSLRLSCAASGRTFSEYAMGWFRQAPGKEREFVATISWSGGSTYYTDSVKGRFTISRDNAKNTVYLQMNSLKPDDTAVYYCAAAGLGTVVSEWDYDYYLDYWGQGTQVTVSS :: 73100
